# Kd per record follows
Biological target: T1, EsCas13d, nuclease-dead (Eubacterium siraeum, UniProt B0MS50, R295A;H300A;R849A;H854A)
T1 sequence: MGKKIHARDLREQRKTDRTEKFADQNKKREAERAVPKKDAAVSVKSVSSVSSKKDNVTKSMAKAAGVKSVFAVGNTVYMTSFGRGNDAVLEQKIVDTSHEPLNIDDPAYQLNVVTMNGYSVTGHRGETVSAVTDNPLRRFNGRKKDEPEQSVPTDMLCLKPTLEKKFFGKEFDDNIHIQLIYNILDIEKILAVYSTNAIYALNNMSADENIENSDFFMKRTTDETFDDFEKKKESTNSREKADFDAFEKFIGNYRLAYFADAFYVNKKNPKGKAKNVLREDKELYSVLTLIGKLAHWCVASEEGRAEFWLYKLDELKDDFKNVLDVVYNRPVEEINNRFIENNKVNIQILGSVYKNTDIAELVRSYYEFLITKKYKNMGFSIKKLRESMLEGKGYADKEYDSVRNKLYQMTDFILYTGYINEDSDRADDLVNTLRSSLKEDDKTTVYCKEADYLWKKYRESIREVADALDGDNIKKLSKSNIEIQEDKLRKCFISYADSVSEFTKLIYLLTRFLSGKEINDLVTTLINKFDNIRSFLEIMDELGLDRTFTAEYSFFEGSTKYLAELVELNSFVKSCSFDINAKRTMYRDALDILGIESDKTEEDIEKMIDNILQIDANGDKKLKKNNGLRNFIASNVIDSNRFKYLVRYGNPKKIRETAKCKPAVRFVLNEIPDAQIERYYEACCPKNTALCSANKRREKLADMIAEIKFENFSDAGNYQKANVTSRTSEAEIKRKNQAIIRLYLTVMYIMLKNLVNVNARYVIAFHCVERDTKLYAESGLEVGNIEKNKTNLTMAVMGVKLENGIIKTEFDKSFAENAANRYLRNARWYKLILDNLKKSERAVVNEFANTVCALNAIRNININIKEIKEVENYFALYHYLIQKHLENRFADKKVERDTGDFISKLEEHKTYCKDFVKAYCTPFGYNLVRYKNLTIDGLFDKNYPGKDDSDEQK
Assay: crRNA (strand 1, pre-loaded); Mg2+; 40 mM Tris-HCl pH 7.5, 150 mM NaCl, 6 mM MgCl2, 1 mM DTT, 0.1% Tween-20, 0.2 mg/ml BSA; 25 C; 10 min per concentration, then washed
Conditions: tags: His6-TwinStrep-SUMO cleaved; N-terminal SNAP kept (SNAP-Surface 488); label: 3' end held by stalled T7 RNA polymerase

[
  {
    "Binder": "target 1 insA 3' of 17,insA 3' of 15 (mixed) RNA 1: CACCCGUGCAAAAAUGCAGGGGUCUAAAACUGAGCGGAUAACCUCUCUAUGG RNA 2: GGGAAUGGAUCCACAUCUACGAAUUCGUACCAUAGAAGAAGGUUAUCCGCUCACCGAGAUCGGAAGAGCACACGU",
    "Scale Unit": "nM",
    "Kd": 8
  },
  {
    "Binder": "target 1 insC 3' of 11,insG 3' of 10 (mixed) RNA 1: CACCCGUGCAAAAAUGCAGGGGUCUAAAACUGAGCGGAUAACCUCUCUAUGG RNA 2: GGGAAUGGAUCCACAUCUACGAAUUCGUACCAUAGAGAGGUCUGAUCCGCUCACCGAGAUCGGAAGAGCACACGU",
    "Scale Unit": "nM",
    "Kd": 23.4
  },
  {
    "Binder": "target 1 insG 3' of 19,insA 3' of 8 (mixed) RNA 1: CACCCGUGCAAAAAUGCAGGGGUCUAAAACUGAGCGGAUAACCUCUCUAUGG RNA 2: GGGAAUGGAUCCACAUCUACGAAUUCGUACCAUGAGAGAGGUUAUACCGCUCACCGAGAUCGGAAGAGCACACGU",
    "Scale Unit": "nM",
    "Kd": 57
  },
  {
    "Binder": "target 1 insG 3' of 19,insA 3' of 11 (mixed) RNA 1: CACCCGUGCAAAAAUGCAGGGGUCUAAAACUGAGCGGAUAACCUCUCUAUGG RNA 2: GGGAAUGGAUCCACAUCUACGAAUUCGUACCAUGAGAGAGGUAUAUCCGCUCACCGAGAUCGGAAGAGCACACGU",
    "Scale Unit": "nM",
    "Kd": 89
  }
]

// data source = paper PMC10786891
